assay_comment: qHTS assay to identify small molecule antagonists of the vitamin D receptor (VDR) signaling pathway - cell viability counter screen (AID 743225); also: nearly all actives have a fitted effect of over 50% in size
condition_summary: VDR-bla HEK293T viability, CellTiter-Glo luminescence, 16 h; series mostly up to 61 µM
From the text: U.S. Tox21 Program National Center for Advancing Translational Sciences [NCATS] NIH Chemical Genomics Center [NCGC] U.S. Environmental Protection Agency [EPA] National Institutes of Environmental Health Sciences [NIEHS] National Toxicology Program [NTP] U.S. Food and Drug Administration [FDA] Tox21 Assay Overview: The vitamin D receptor (VDR), a member of nuclear hormone receptor superfamily, plays a critical role in calcium homeostasis and bone metabolism. […]
Records with an inconclusive call do not appear. Calls of active or inactive are those of the source. Calls follow the shape of the dose curve; as a rule, active = well fitted cell-killing curve with a large enough effect in the repeat runs; inconclusive = weak or mixed curves, or effect the other way; inactive = no such curve, though single readings can be large or run the other way.
Outcome codes: active, inactive

{"compound": "C[Si](Cl)(c1ccccc1)c1ccccc1", "class_assignment": "inactive"}
{"compound": "C=CC(C)(CCC=C(C)C)OC=O (configuration not stated)", "class_assignment": "inactive"}
{"compound": "O=C(Oc1ccccc1)Oc1ccccc1", "class_assignment": "inactive"}
{"compound": "S=C([S-])NCCNC(=S)[S-].S=C([S-])NCCNC(=S)[S-].[Mn+2].[Zn+2]", "class_assignment": "inactive"}
{"compound": "CCC(=O)C(=O)CC", "class_assignment": "inactive"}
{"compound": "CCCCCc1ccc(Cl)cc1", "class_assignment": "inactive"}
{"compound": "CC(C)OC(=O)C(O)(CC(=O)O)CC(=O)O", "class_assignment": "inactive"}
{"compound": "Cc1cc(=O)oc2cc(O)cc(O)c12", "class_assignment": "inactive"}
{"compound": "Cc1ccc(C(C)C)cc2c(C)ccc1-2", "class_assignment": "inactive"}
{"compound": "COC(=O)c1ccccc1OC", "class_assignment": "inactive"}
{"compound": "CCC(C)[O-].CCC(C)[O-].CCOC(=O)/C=C(/C)[O-].[Al+3]", "class_assignment": "inactive"}
{"compound": "CC1(C)CCC[C@]2(C)[C@H]3CCO[C@]3(C)CC[C@@H]12", "class_assignment": "inactive"}
{"compound": "COC(=O)c1ccccc1C", "class_assignment": "inactive"}
{"compound": "OCCN1CCN(CCCN2c3ccccc3Sc3ccc(C(F)(F)F)cc32)CC1", "class_assignment": "active"}
{"compound": "CN(C)Cc1ccccc1O", "class_assignment": "inactive"}
{"compound": "CC[N+](CC)(CC)CCOc1ccc(/C=C/c2ccccc2)cc1", "class_assignment": "inactive"}
{"compound": "COC(=O)C1=C(C)NC(C)=C(C(=O)OCCN2CCN(C(c3ccccc3)c3ccccc3)CC2)C1c1cccc([N+](=O)[O-])c1 (configuration not stated)", "class_assignment": "inactive"}
{"compound": "CCCCOC(=O)CC", "class_assignment": "inactive"}
{"compound": "C=CC(=O)Nc1cc2c(Nc3ccc(F)c(Cl)c3)ncnc2cc1OCCCN1CCOCC1", "class_assignment": "inactive"}
{"compound": "O=C(O)c1cccc(C(F)(F)F)c1", "class_assignment": "inactive"}
{"compound": "[Cu+]", "class_assignment": "inactive"}
{"compound": "CCc1ccc(Br)cc1", "class_assignment": "inactive"}
{"compound": "CC(=O)CC(=O)Nc1ccc(S(=O)(=O)O)cc1", "class_assignment": "inactive"}
{"compound": "CC1(C)CCC[C@]2(C)[C@H]3CC(=O)O[C@]3(C)CC[C@@H]12", "class_assignment": "inactive"}
{"compound": "CCCCCCC1CCCC(=O)O1 (configuration not stated)", "class_assignment": "inactive"}
{"compound": "CC(=O)c1ccc(C(C)=O)cc1", "class_assignment": "inactive"}
{"compound": "COc1cc(/C=C/c2ccccc2)oc(=O)c1", "class_assignment": "inactive"}
{"compound": "CN(C)C(=O)COC(=O)Cc1ccc(OC(=O)c2ccc(N=C(N)N)cc2)cc1", "class_assignment": "inactive"}
{"compound": "CN(C)CCN1CCN(c2cccc(Cl)c2)C1=O", "class_assignment": "inactive"}
{"compound": "CC(C(=O)O)c1ccc2c(c1)[nH]c1ccc(Cl)cc12 (configuration not stated)", "class_assignment": "inactive"}
{"compound": "Oc1cc(Cl)cc(Cl)c1Cl", "class_assignment": "inactive"}
{"compound": "O=C(O)CCN(C1(C(=O)NO)CCCC1)S(=O)(=O)c1ccc(Oc2ccc(F)cc2)cc1", "class_assignment": "inactive"}
